Value source: patent US5750754A

# TARGET UNDER TEST: purified human platelet fibrinogen receptor (GPIIb/IIIa) (Homo sapiens, UniProt P05106+P08514)
# Construct: is isolated from human platelet lysates; from tissue
# MEASUREMENT DESCRIPTION: Test (b): GPIIb/IIIa ELISA, inhibition of biotinylated fibrinogen binding
# CONDITION PARAMETERS: purified human platelet GPIIb/IIIa, ELISA; read-out: Test (b): pIC50 (-log(IC50)), 50% inhibition of biotinylated fibrinogen binding to GPIIb/IIIa (converted)
Counter-ions that a name gives are not always drawn.
READOUT NAME: IC50 (nM)

Example entries and their recorded answers appear below.
Exercise: Indicate the recorded IC50 value for this molecule: O=C(O)C1CCCN(C(=O)c2ccc(N3CCN(c4ccncc4)CC3)cc2)C1 (stereo not drawn)
Solution: 200

Exercise: Please indicate IC50 recorded for CCCCS(=O)(=O)NC(Cc1ccc(CN2CCN(c3ccncc3)CC2)cc1)C(=O)O (racemic)
Solution: 12.6

Exercise: Input O=C(O)COC1CCN(C(=O)CN2CCN(c3ccncc3)CC2)CC1 , output reported IC50.
Solution: 50.1

Exercise: Specify reported IC50 for the molecule shown: O=C(O)c1ccc(C(=O)CN2CCN(c3ccncc3)CC2)cc1
Solution: 31600

Exercise: Let me know recorded IC50 for O=C(O)CCNC(=O)CCCN1CCN(c2ccncc2)CC1 [Example 195, trifluoroacetate] , thanks.
Solution: 158

A. O=C(O)COc1ccc(C(=O)NC2CCN(c3ccncc3)CC2)cc1 [Example 167, dihydrochloride]
B. O=C(O)COc1cc(OCC(=O)O)cc(C(=O)CN2CCN(c3ccncc3)CC2)c1
Exercise: Dear colleague, could you let me know whether A or B has the lower recorded IC50? Thanks. // respond with label for picked entry
Solution: A
(A: 200 nM, B: 25100 nM)

###

# TARGET UNDER TEST: human, citrated, platelet-rich plasma (Homo sapiens, UniProt P05106+P08514)
# Construct: aggregating human, citrated, platelet-rich plasma; endogenous in cells; host or cells: human platelets in citrated platelet-rich plasma
# Sequence (P08514 32-887 limits assumed): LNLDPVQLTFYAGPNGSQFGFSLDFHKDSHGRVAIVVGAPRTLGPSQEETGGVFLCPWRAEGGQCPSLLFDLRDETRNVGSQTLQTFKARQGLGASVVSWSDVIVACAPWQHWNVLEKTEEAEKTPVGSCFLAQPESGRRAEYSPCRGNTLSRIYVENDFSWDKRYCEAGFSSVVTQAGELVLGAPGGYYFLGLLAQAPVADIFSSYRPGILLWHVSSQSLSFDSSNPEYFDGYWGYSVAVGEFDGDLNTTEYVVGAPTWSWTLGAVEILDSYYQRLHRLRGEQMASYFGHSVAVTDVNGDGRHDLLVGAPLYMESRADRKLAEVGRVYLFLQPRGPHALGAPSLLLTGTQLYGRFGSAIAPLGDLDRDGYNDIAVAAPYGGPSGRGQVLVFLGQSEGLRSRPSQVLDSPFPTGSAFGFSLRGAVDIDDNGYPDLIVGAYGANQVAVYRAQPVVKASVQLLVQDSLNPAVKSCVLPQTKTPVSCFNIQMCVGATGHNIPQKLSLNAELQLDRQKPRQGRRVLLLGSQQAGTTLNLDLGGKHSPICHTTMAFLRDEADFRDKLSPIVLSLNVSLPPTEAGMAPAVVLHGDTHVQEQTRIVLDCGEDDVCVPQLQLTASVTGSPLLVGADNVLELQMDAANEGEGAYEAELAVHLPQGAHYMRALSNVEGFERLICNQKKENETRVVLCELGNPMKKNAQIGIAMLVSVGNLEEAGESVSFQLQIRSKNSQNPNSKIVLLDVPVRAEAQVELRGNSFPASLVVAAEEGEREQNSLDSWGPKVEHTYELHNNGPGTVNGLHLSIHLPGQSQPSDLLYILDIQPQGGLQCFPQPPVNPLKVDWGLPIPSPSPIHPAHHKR
# Sequence (P08514 891-1039 limits assumed): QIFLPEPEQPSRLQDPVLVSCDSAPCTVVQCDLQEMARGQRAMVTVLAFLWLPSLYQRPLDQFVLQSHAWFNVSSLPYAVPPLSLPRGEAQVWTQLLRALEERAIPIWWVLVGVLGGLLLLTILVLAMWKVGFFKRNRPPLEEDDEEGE
# Sequence (P05106 27-788): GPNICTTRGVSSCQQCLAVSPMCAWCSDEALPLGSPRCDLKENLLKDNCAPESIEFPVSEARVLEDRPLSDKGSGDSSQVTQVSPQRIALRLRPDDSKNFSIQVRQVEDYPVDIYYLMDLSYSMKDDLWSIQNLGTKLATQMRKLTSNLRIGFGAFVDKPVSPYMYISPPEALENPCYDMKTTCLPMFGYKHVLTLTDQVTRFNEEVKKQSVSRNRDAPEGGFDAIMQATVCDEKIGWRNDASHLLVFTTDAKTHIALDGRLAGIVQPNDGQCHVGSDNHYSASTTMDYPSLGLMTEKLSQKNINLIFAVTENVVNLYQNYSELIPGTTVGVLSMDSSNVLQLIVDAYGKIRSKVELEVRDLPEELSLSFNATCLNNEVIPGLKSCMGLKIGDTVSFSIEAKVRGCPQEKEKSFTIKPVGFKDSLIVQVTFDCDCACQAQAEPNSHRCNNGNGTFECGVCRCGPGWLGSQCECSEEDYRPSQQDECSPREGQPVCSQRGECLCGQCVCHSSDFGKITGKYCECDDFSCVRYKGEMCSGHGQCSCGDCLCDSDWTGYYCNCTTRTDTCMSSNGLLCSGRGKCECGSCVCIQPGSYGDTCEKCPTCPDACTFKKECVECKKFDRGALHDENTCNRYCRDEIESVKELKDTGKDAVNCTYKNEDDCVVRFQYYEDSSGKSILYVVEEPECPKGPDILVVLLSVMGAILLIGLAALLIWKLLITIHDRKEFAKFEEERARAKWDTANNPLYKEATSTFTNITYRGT
# MEASUREMENT DESCRIPTION: Test (a): inhibition of ADP stimulated platelet aggregation (Born)
# Assay type: cell-based
# CONDITION PARAMETERS: ADP induced aggregation of human platelet-rich plasma; read-out: Test (a): pA2 value indicating potency of platelet aggregation inhibition (converted)
# From the text: (i) aggregating human, citrated, platelet-rich plasma by addition of adenosine diphosphate so as to generate a dose-response curve; (ii) generating a dose-response curve for ADP stimulated platelet aggregation in the presence of increasing amounts of a test compound (generally in the range 10-^5 M to 10-^10 M); and […]
Where a name gives a salt, the structure may show the parent alone.
READOUT NAME: Kb (µM)

Exercise: Name the recorded Kb of CC(C)(C(=O)c1ccc(OCC(=O)O)cc1)N1CCN(c2ccncc2)CC1 [Example 176] , assay system human, citrated, platelet-rich plasma (Homo sapiens, UniProt P05106+P08514).
Solution: 0.2

Exercise: Tell me its Kb on human, citrated, platelet-rich plasma (Homo sapiens, UniProt P05106+P08514): O=C(O)Cc1ccc(NC(=O)C2CCN(c3ccncc3)CC2)cc1 [Example 169]
Solution: 39.8

Exercise: GET Kb where system = human, citrated, platelet-rich plasma (Homo sapiens, UniProt P05106+P08514) and item = CS(=O)(=O)NCCc1ccc(NC(=O)C2CCN(c3ccncc3)CC2)cc1 [Example 183]
Solution: 31.6

Exercise: Answer briefly: Kb recorded on human, citrated, platelet-rich plasma (Homo sapiens, UniProt P05106+P08514) for CCCCS(=O)(=O)N[C@@H](Cc1ccc(OCC2CCN(c3ccncc3)CC2)cc1)C(=O)O [Example 34]
Solution: 0.002

Exercise: // fetch Kb for O=C(O)CN1CCCC(Oc2ccc(N3CCN(c4ccncc4)CC3)cc2)C1 (centres unmarked) [Example 239] ; system: human, citrated, platelet-rich plasma (Homo sapiens, UniProt P05106+P08514)
Solution: 2.51

I. Cc1cc(OCC(=O)O)ccc1C(=O)CN1CCN(c2ccncc2)CC1 [Example 125, dihydrochloride]
II. O=C(O)C[C@@H](NC(=O)c1ccc(N2CCN(c3ccncc3)CC2)cc1)C(=O)NCCc1ccccc1 [Example 193]
III. CCCCS(=O)(=O)Nc1ccc(C(=O)CN2CCN(c3ccncc3)CC2)cc1 [Example 20]
Exercise: Please list these compounds in decreasing order of Kb. List labels; respect the requested ordering.
Solution: II, III, I
(II: 39.8 µM, III: 5.01 µM, I: 0.158 µM)
